Listed next: entries and their corresponding IC50.
- Test system: HeLa cells
- Test Method Notes: Inhibition of cellular proliferation, SRB assay, HeLa cells
- Format: cell-based
- Settings: HeLa cells, SRB assay; parent taccalonolide; read-out: IC50

| Molecule | Endpoint Unit | Result Operator | IC50 |
| --- | --- | --- | --- |
| CC(=O)O[C@H]1C[C@H]2[C@H]([C@@H]3[C@@H](O)[C@@H]4[C@H]([C@H](C)C=C5OC(=O)[C@@](C)(O)[C@@]54C)[C@]31C)[C@@H](O)C(=O)[C@@]1(O)C[C@@H]3O[C@@H]3[C@H](OC(=O)CC(C)C)[C@]21C [Taccalonolide AM] | µM | = | 1.2 |
| CC(=O)O[C@@H]1[C@H]2[C@H]3[C@H]([C@H](OC(C)=O)[C@H](OC(C)=O)[C@]2(C)[C@@H]2[C@@H]1[C@]1(C)C(=C[C@H]2C)OC(=O)[C@@]1(C)O)[C@]1(C)[C@H](C[C@@H]2O[C@@H]2[C@@H]1OC(C)=O)C(=O)C3(O)O [Taccalonolide AE] | µM | = | 5.01 |
| CC(=O)O[C@H]1C[C@H]2[C@H]([C@@H]3[C@H]4OC(=O)[C@@](C)(O)[C@@]5(C)C(=O)C[C@@H](C)[C@@H]([C@@H]45)[C@]31C)[C@@H](O)C(=O)[C@H]1C[C@@H]3O[C@@H]3[C@H](OC(C)=O)[C@@]12C [Taccalonolide AK] | µM | > | 30 |
| CC(=O)O[C@H]1C[C@H]2[C@H]([C@@H]3[C@@H](O)[C@@H]4[C@H]([C@H](C)C=C5OC(=O)[C@@](C)(O)[C@@]54C)[C@]31C)[C@@H](O)C(=O)[C@H]1C[C@@H]3O[C@@H]3[C@H](OC(=O)CC(C)C)[C@@]12C [Taccalonolide AI] | µM | = | 0.047 |

Origin of the recorded values: patent US20200071351A1
